For each entry below, report its zone of inhibition at 300 µg/disc value.
Tested on: Klebsiella aerogenes
Test: Antibacterial activity against Enterobacter aerogenes MTCC 39 assessed as inhibition zones at 300 ug/disk at 37 degC for 24 hr
Assay type: functional
Conditions: MTCC 39, 24 h, read-out: IZ
Give bare numbers, in mm.

Solved cases (5 shown):
# Molecule, zone of inhibition at 300 µg/disc (mm)
rows = [
    ("COc1ccc(N2N=C3C(SC(c4cc(Cc5ccc(OC)c(C6SC7C(=NN(c8ccc(OC)cc8)C7c7ccc(F)cc7)N6c6ccc(Cl)cc6)c5)ccc4OC)N3c3ccc(Cl)cc3)C2c2ccc(F)cc2)cc1 (stereo unspecified)", 21),
    ("COc1ccc(Cc2ccc(OC)c(C3SC4C(=NN(Cc5ccccc5)C4c4ccc(F)cc4)N3c3ccc([N+](=O)[O-])cc3)c2)cc1C1SC2C(=NN(Cc3ccccc3)C2c2ccc(F)cc2)N1c1ccc([N+](=O)[O-])cc1 (stereo unspecified)", 19),
    ("COc1ccc(Cc2ccc(OC)c(C3SC4C(=NN(c5ccc(Cl)cc5)C4c4ccc(F)cc4)N3c3ccc(C)cc3)c2)cc1C1SC2C(=NN(c3ccc(Cl)cc3)C2c2ccc(F)cc2)N1c1ccc(C)cc1 (stereo unspecified)", 18),
    ("COc1ccc(Cc2ccc(OC)c(C3SC4C(=NN(C(C)C)C4c4ccc(F)cc4)N3c3ccc([N+](=O)[O-])cc3)c2)cc1C1SC2C(=NN(C(C)C)C2c2ccc(F)cc2)N1c1ccc([N+](=O)[O-])cc1 (stereo unspecified)", 17),
    ("COc1ccc(Cc2ccc(OC)c(C3SC4C(=NN(Cc5ccccc5)C4c4ccc(F)cc4)N3c3ccc(C)cc3)c2)cc1C1SC2C(=NN(Cc3ccccc3)C2c2ccc(F)cc2)N1c1ccc(C)cc1 (stereo unspecified)", 22),
]

Answer for every listed entry: what is its zone of inhibition at 300 µg/disc? The entries follow.
1. COc1ccc(Cc2ccc(OC)c(C3SC4C(=NN(C)C4c4ccc(F)cc4)N3c3ccc(Cl)cc3)c2)cc1C1SC2C(=NN(C)C2c2ccc(F)cc2)N1c1ccc(Cl)cc1 (stereo unspecified)
2. COc1ccc(Cc2ccc(OC)c(C3SC4C(=NN(Cc5ccccc5)C4c4ccc(F)cc4)N3c3ccc(Cl)cc3)c2)cc1C1SC2C(=NN(Cc3ccccc3)C2c2ccc(F)cc2)N1c1ccc(Cl)cc1 (stereo unspecified)
3. COc1ccc(Cc2ccc(OC)c(C3SC4C(=NN(C(C)C)C4c4ccc(F)cc4)N3c3ccc(Cl)cc3)c2)cc1C1SC2C(=NN(C(C)C)C2c2ccc(F)cc2)N1c1ccc(Cl)cc1 (stereo unspecified)
4. COc1ccc(Cc2ccc(OC)c(C3SC4C(=NN(c5ccccc5)C4c4ccc(F)cc4)N3c3ccc(Cl)cc3)c2)cc1C1SC2C(=NN(c3ccccc3)C2c2ccc(F)cc2)N1c1ccc(Cl)cc1 (stereo unspecified)
5. COc1ccc(Cc2ccc(OC)c(C3SC4C(=NN(C)C4c4ccc(F)cc4)N3c3ccc([N+](=O)[O-])cc3)c2)cc1C1SC2C(=NN(C)C2c2ccc(F)cc2)N1c1ccc([N+](=O)[O-])cc1 (stereo unspecified)

Response line:
[21, 23, 20, 22, 19]

Prompt line: What zone of inhibition at 300 µg/disc value was documented for this molecule, COc1ccc(Cc2ccc(OC)c(C3SC4C(=NN(C(C)C)C4c4ccc(F)cc4)N3c3ccc(C)cc3)c2)cc1C1SC2C(=NN(C(C)C)C2c2ccc(F)cc2)N1c1ccc(C)cc1 (stereo unspecified) ?
Response line: 19
